Numbers sourced from patent US8889704B2.

Recorded pIC50 for the following compounds
experimental-target: GST-tagged recombinant full-length human Pim-2 (Homo sapiens, UniProt Q9P1W9)
Construct: GST-tagged recombinant full-length human Pim-2; GST
Sequence (Q9P1W9 whole entry): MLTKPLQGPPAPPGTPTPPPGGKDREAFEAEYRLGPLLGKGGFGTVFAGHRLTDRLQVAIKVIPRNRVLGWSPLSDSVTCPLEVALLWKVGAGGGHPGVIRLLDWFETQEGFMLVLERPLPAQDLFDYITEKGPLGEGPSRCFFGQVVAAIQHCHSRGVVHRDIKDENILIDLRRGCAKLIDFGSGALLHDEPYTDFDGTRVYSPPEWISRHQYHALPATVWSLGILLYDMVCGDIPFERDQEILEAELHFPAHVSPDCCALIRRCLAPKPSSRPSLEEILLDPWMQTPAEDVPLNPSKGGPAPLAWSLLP
experiment-description: PIM-2 Assay (as Example A)
measurement-setup: averaged IC50; 4 μM ATP, 1.0 μM PIM2tide, 1.5 nM Pim-2
Structures can show the parent of a compound that is named as a salt.
// pIC50 here means minus log10 of the molar concentration (mol/L)

>>> df
                                   compound  numeric_result
0  COCCCOc1cc(F)cc2ccc(-c3nnc4ccc([C@@H](N5CC[C@H](N)C5)C(F)(F)F)cn34)nc12 [Example 233, dihydrochloride]            6.59

# ---- query compound ----
Reported pIC50 of CCOCCOc1ccc2ccc(-c3nnc4ccc([C@H](N5CC[C@](C)(N)C5)C(F)(F)F)cn34)nc2c1 : 6.55

* * *

experimental-target: GST-tagged recombinant full-length human Pim-2 (Homo sapiens, UniProt Q9P1W9)
Construct: GST-tagged recombinant full-length human Pim-2; GST
experiment-description: PIM-2 Assay (as Example A)
measurement-setup: averaged IC50; 4 μM ATP, 1.0 μM PIM2tide, 1.5 nM Pim-2
Where a name gives a salt, the structure may show the parent alone.
assay-metric: pIC50
// pIC50 here means minus log10 of the molar concentration (mol/L)

// known answers, use as guide
compound	pIC50
CCC1(N)CCN([C@@H](c2ccc3nnc(-c4ccc5cccc(OC)c5n4)n3c2)C(F)(F)F)C1 (single isomer, unassigned; diastereomer 1) [Example 250, dihydrochloride]	6.06
CCOc1cc2nc(-c3nnc4ccc([C@@H](N5CCC(N)(CC)C5)C(F)(F)F)cn34)ccc2cc1F (single isomer, unassigned; diastereomer 2) [Example 253, dihydrochloride]	6.11

# ---- query compound ----
Reported pIC50 of CCOc1cc2nc(-c3nnc4ccc([C@@H](N5CC[C@@H](CN)C5)C(F)(F)F)cn34)ccc2cc1F [Example 279, hydrochloride] : 6.37

* * *

Recorded IC50 for the following compounds
experimental-target: GST-tagged recombinant full-length human Pim-2 (Homo sapiens)
Construct: GST-tagged recombinant full-length human Pim-2; GST
experiment-description: PIM-2 Assay (as Example A)
Assay type: biochemical
measurement-setup: averaged IC50; 4 μM ATP, 1.0 μM PIM2tide, 1.5 nM Pim-2

>>> df
                            chemical_string  assay_metric    result
0  CC(C)Oc1ccc2ccc(-c3nnc4ccc([C@H](N5CC[C@](C)(N)C5)C(F)(F)F)cn34)nc2c1          IC50   18.4 nM
1  CC(C)Oc1cccc2ccc(-c3nnc4ccc([C@H](N5CC[C@@H](O)C5)C(F)(F)F)cn34)nc12          IC50  > 100 nM

# ---- query compound ----
Reported IC50 of CC(C)(C)C(=O)Nc1ccc2ccc(-c3nnc4ccc([C@@H](N5CC[C@H](O)C5)C(F)(F)F)cn34)nc2c1 : > 100 nM

* * *

Structures can show the parent of a compound that is named as a salt.
Assay system UniProt P11309; read-out recorded as pIC50.
Sequence (P11309 whole entry, species assumed): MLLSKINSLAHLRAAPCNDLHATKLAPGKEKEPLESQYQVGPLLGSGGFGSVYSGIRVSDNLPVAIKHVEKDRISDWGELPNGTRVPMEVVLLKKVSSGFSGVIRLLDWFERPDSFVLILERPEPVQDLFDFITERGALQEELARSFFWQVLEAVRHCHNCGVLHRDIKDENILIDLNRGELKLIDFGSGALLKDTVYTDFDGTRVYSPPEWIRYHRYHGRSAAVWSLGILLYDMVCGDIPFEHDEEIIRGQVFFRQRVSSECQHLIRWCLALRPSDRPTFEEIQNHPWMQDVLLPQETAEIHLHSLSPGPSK
// pIC50 here means minus log10 of the molar concentration (mol/L)

// known answers, use as guide
In [3]: df
Out[3]:
                                   molecule  numeric_result
0  COCCOc1ccc2ccc(-c3nnc4ccc([C@@H](N5CC[C@H](N)C5)C(F)(F)F)cn34)nc2c1F [Example 179, dihydrochloride]            8.61
1  CC1(N)CCN(C(c2ccc3nnc(-c4ccc5cccc(OCC6CC6)c5n4)n3c2)C(F)(F)F)C1 (stereo not drawn) [Example 27, dihydrochloride]            9.10
2  FC(F)(F)[C@@H](c1ccc2nnc(-c3ccc4cccc(OCC5CC5)c4n3)n2c1)N1C[C@@H]2C[C@H]1CN2 [Example 67, dihydrochloride]            8.79
3  N[C@H]1CCN([C@H](c2ccc3nnc(-c4ccc5cccc(OC(F)(F)F)c5n4)n3c2)C(F)(F)F)C1 [Example 40, dihydrochloride]            9.68
4  CC(C)(C)c1cccc2ccc(-c3nnc4ccc([C@@H](N5CC[C@H](NCCO)C5)C(F)(F)F)cn34)nc12 [Example 100, dihydrochloride]           10.00

# ---- query molecule ----
Reported pIC50 of CC(C)NC(=O)c1ccc2ccc(-c3nnc4ccc(C(N5CC[C@H](N)C5)C(F)(F)F)cn34)nc2c1 (stereo partly drawn) [Example 30, dihydrochloride] : 9.49
